Target: Alpha-2C adrenergic receptor (Homo sapiens) (UniProt P18825)
Sequence (P18825 whole entry, looked up): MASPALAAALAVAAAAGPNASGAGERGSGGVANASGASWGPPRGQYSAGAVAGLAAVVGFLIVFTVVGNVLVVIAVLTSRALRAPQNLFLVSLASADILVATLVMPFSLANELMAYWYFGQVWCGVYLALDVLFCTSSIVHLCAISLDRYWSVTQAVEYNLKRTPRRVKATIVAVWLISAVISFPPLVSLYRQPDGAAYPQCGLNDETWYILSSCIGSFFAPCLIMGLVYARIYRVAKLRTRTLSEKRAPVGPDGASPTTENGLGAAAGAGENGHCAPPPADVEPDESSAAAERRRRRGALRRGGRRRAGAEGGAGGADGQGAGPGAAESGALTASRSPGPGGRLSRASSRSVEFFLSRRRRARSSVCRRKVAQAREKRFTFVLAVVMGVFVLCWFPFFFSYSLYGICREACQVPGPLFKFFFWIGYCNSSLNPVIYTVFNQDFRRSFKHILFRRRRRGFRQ
Assay: compounds altering alpha2C-coupled GIRK flux – cell-based, HEK293 alpha2C/GIRK1/2, thallium flux, primary screen (AID 624);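 note: slope of fluorescence ratio to pre-addition baseline per second over 15 to 24 s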
Conditions: thallium flux BTC fluorescence, at 10 µM, actives lie on both sides
Items are presented alongside their recorded slope.
Lab note: record just the number, no unit beside it.

Sample records with slope:
N#CC(C(=O)c1ccco1)c1ccccn1 (stereo not given): 0.00116
CCOC(=O)Cc1csc(/C(=N/O)C(N)=O)n1: 0.00629
O=C1c2ccccc2C(Nc2ccc3c(c2)OCCO3)N1Cc1ccc2c(c1)OCO2 (stereo not given): 0.00464
CC1Cc2ccccc2N1C(=O)C12CCC(C)(C(=O)C1)C2(C)C (stereo not given): 0.00468
O=C(Cn1c(=O)sc2ccccc21)NCCOc1ccccc1F: 0.00676

For CC(=O)c1c(C)nn(C(C)CC(=O)O)c1C (stereo not given) the compound record lists slope as 0.00713

Looking up "O=C(O)CCC(=O)c1c[nH]c2ccccc12" , I found its slope recorded as 0.00973

// slope lookup, compound = "CCCCCn1c(CN2CCN(C(=O)OCC)CC2)nc2c1c(=O)[nH]c(=O)n2C" , result: 0.00615

So, "Cc1cc(=O)n(C)c(=O)n1CCCCCN1CCCC1" ? Its slope was 0.00473

Record "N[C@@H](Cc1ccccc1)c1nnc2sc(SCc3ccccc3)nn12" . Reported slope: 0.00539

Entry CCc1[nH]nc2c1C(c1cccc(OC(=O)N3CCOCC3)c1)C(C#N)=C(N)O2 (stereo not given) , slope reported as 0.00573

Just so you know, measured slope for CS(=O)(=O)c1ccc2nc(NC(=O)C3C4C=CC(C4)C3C(=O)O)sc2c1 (stereo not given) came out at 0.00376

Query "Cc1ccc2c(C)nc(Nc3nc(CSc4nnnn4-c4ccccc4)cc(=O)[nH]3)nc2c1" yields slope of 0.00691

Entry Cc1c(C(=O)OCCOC(C)C)[nH]c2c1C(=O)CC(c1ccco1)C2 (stereo not given) — recorded slope = 0.00564

Measured slope of "CC(C)OCCCNC(=O)c1cc2c(s1)CS(=O)(=O)C2" : 0.0057

The reported value for COc1ccc(C(CNC(=O)c2cc(C)oc2C)N2CCOCC2)cc1 (stereo not given) in terms of slope is 0.00615

// slope lookup, compound = Cc1cccc(N2C(=O)CC(N3CCN(c4cccc(C(F)(F)F)c4)CC3)C2=O)c1 (stereo not given) , result: 0.00436

For reference, reported slope for "COc1ccccc1Cn1c(-c2ccco2)nc2nc3ccccc3nc21" stands at 0.00597

Record "CCOC(=O)c1[nH]c(C)c(C(=O)Nc2ccc(Cl)cc2)c1C" . Reported slope: 0.00669

For this compound ( "Cc1cc(C)nc(NC2=NCC(=O)N2c2ccccc2Br)n1" ), measured slope is 0.00564

So, "COc1ccc(N(CC(=O)Nc2ccc(F)c(Cl)c2)S(=O)(=O)c2c(C)noc2C)cc1" ? Its slope was 0.00672

slope reading for "COc1ccc(-n2nnnc2SCC(=O)N2CCOCC2)cc1" : 0.00627

Documented slope of CCOC(=O)c1ccc(NC(=O)Cn2cc3c(n2)CCC(C)C3)cc1 (stereo not given) : 0.00553

slope reading for "C=CCn1c(-c2ccccc2)c[nH]c1=S" : 0.00665

slope reported for this compound "COCCn1c(SCC(=O)Nc2cccc(OC)c2)nnc1-c1ccccc1" : 0.00579

Lab note: measured slope of "O=C(O)CCc1ccc(-c2ccc(Br)cc2)n1CC(=O)O" was 0.00594

Noted for COc1ccc(-n2c(=O)c3c4c(sc3n3cnnc23)CC(C)CC4)cc1 (stereo not given) : its slope reads 0.00768

Lab note: measured slope of "Fc1cccc2sc(N3CCOCC3)nc12" was 0.00353

Entry under test: "CCCCSc1nnc([C@H](C)NC(=O)OC(C)(C)C)o1" . Its slope was 0.00436

"O=C1c2ccccc2C(=O)N1CCCCN1CCN(CCCCN2C(=O)c3ccccc3C2=O)CC1" has a reported slope of 0.00409

The compound O=C(CC(SCCO)c1ccc2c(c1)OCO2)c1ccco1 (stereo not given) showed slope equal to 0.00625

For record "CCCOC(=O)c1ccc(-c2c(C)noc2-c2ccc(OC)cc2O)o1" the listed slope is 0.00302

Looking up CC1(c2ccc(Cl)cc2)NC(=O)N(CC(=O)NC(=O)NCc2ccco2)C1=O (stereo not given) , I see its slope listed as 0.00253
